Target: HLA-A*02:01 (Homo sapiens, UniProt P04439, D140Y/D185E/D98H/E176V/E277Q/G131W/G231S/I119V/I121R/I166T/I218V/L300P/L318F/N151K/N90K/P208A/P217A/Q86G/Q94H/R138H/R169H/T345S)
Test: MHC binding assay (UV-ligand exchange, beta2m ELISA)
Settings: binding to HLA-A*02:01 ranged by peptide exchange yield (UV-ligand exchange, β2m ELISA)
Quantity Name: Peptide exchange

Below, each entry is followed by its recorded Peptide exchange result.
Asked: Which value of Peptide exchange has been reported for 63 (YLLPSGGSVTL; listed as Homo sapiens) [compound 63] in the records?
Given back: “++” (≥20% = ++)

Asked: Entry to check: 528 (SVAEGRALMSV; listed as Homo sapiens) [compound 528]
Given back: “+++” (≥50 = +++)

Asked: Can you handle 485 (NVPDSFNEV; listed as Homo sapiens) [compound 485] next?
Given back: “+++” (≥50 = +++)

Asked: Similarly, 455 (SLLKEPQKVQL; listed as Homo sapiens) [compound 455] ?
Given back: “++” (≥20% = ++)

Asked: Cool, now 379 (IMEGTLTRV; listed as Homo sapiens) [compound 379]
Given back: “++” (≥20% = ++)

New cases:
Asked: Dear colleague, I am looking for the recorded Peptide exchange of the following substance: 29 (KMLGIPISNILMV; listed as Homo sapiens) [compound 29]
Given back: “+++” (≥50 = +++)

Asked: Now the same for 564 (TVTNAVVTV; listed as Homo sapiens) [compound 564]
Given back: “+++” (≥50 = +++)

Asked: Next substance: 472 (KLLEVSDDPQV; listed as Homo sapiens) [compound 472]
Given back: “+++” (≥50 = +++)

* * *

Biological target: HLA-A*02:01 (Homo sapiens, UniProt P04439, D140Y/D185E/D98H/E176V/E277Q/G131W/G231S/I119V/I121R/I166T/I218V/L300P/L318F/N151K/N90K/P208A/P217A/Q86G/Q94H/R138H/R169H/T345S)
Assay: MHC binding assay (UV-ligand exchange, beta2m ELISA)
Details: binding to HLA-A*02:01 ranged by peptide exchange yield (UV-ligand exchange, β2m ELISA)
Quantity Name: Peptide exchange

Study these solved cases before continuing.
Asked: Sample 117 (ILPDGEDFLAV; listed as Homo sapiens) [compound 117] — what was its Peptide exchange?
Given back: “+++” (≥50 = +++)

Asked: Could you do the same for 124 (ALYETELADA; listed as Homo sapiens) [compound 124] , please?
Given back: “++” (≥20% = ++)

Asked: 144 (YIMEPSIFNTL; listed as Homo sapiens) [compound 144] , same question.
Given back: “+++” (≥50 = +++)

Asked: Moving on to 228 (AMQEYIAVV; listed as Homo sapiens) [compound 228]
Given back: “++” (≥20% = ++)

Now consider a different substance.
Asked: What Peptide exchange value was documented for this substance, 43 (VLSSLEINI; listed as Homo sapiens) [compound 43] ?
Given back: “++” (≥20% = ++)

* * *

Molecular target: HLA-A*02:01 (Homo sapiens, UniProt P04439, D140Y/D185E/D98H/E176V/E277Q/G131W/G231S/I119V/I121R/I166T/I218V/L300P/L318F/N151K/N90K/P208A/P217A/Q86G/Q94H/R138H/R169H/T345S)
Assay: MHC binding assay (UV-ligand exchange, beta2m ELISA)
Details: binding to HLA-A*02:01 ranged by peptide exchange yield (UV-ligand exchange, β2m ELISA)
Quantity Name: Peptide exchange

Below are worked cases with known answers.
Asked: For 573 (ILVANAIVGV; listed as Homo sapiens) [compound 573] , what is its reported Peptide exchange?
Given back: “+++” (≥50 = +++)

Asked: Another substance to check: 122 (FLLAEDDIYL; listed as Homo sapiens) [compound 122]
Given back: “+++” (≥50 = +++)

Asked: Try this substance next: 577 (VMFEDGVLMRL; listed as Homo sapiens) [compound 577]
Given back: “+++” (≥50 = +++)

Asked: Next: 412 (YLDDLNEGVYI; listed as Homo sapiens) [compound 412]
Given back: “++” (≥20% = ++)

Asked: Now give it for 374 (FLLQQHLISA; listed as Homo sapiens) [compound 374] too.
Given back: “++” (≥20% = ++)

Asked: Param item: 139 (SVMEVNSGIYRV; listed as Homo sapiens) [compound 139]
Given back: “+++” (≥50 = +++)

Asked: Can you check 118 (KLIDNNINV; listed as Homo sapiens) [compound 118] next?
Given back: “+++” (≥50 = +++)

Asked: Try this substance too: 39 (SVAPNLPAV; listed as Homo sapiens) [compound 39]
Given back: “+++” (≥50 = +++)

Asked: Would you kindly repeat that for 509 (FLFDTKPLIV; listed as Homo sapiens) [compound 509] ?
Given back: “+++” (≥50 = +++)

Asked: Also 53 (KMIETDILQKV; listed as Homo sapiens) [compound 53] , if possible.
Given back: “++++” (≥75% = ++++)

Continuing:
Asked: Give the measured Peptide exchange of 320 (KMFEFVEPLL; listed as Homo sapiens) [compound 320] .
Given back: “++++” (≥75% = ++++)

Asked: Then what about the substance 454 (KLPPPPPQA; listed as Homo sapiens) [compound 454] ?
Given back: “+++” (≥50 = +++)

Asked: Also 613 (RLLPPGAVVAV; listed as Homo sapiens) [compound 613] , if possible.
Given back: “+++” (≥50 = +++)

Asked: Next entry: 31 (YLAPELFVNV; listed as Homo sapiens) [compound 31]
Given back: “++” (≥20% = ++)
